The reported measurements were obtained from the kinase profiling compilation of Christmann-Franck et al. (2016).

- system tested: BRSK2 (human)
- test: radiometric filter-binding kinase assay, Kinase HotSpot
- run parameters: compound 0.5 µM; ATP 10 µM
metric: residual activity (%)
Lab book: enter the figure in %, no units written.

Observe how each entry below is paired with its result.
- molecule: "O=S(=O)(c1cccc2cnccc12)N1CCCNCC1"
  residual activity, %: 91.7
- molecule: "CO[C@H]1CC2CC[C@@H](C)[C@@](O)(O2)C(=O)C(=O)N2CCCC[C@H]2C(=O)OC([C@H](C)C[C@@H]2CC[C@@H](O)[C@H](OC)C2)CC(=O)[C@H](C)/C=C(\\C)[C@@H](O)[C@@H](OC)C(=O)[C@H](C)C[C@H](C)/C=C/C=C/C=C/1C (some centres undefined)"
  residual activity, %: 109
- molecule: "O=c1cc(N2CCOCC2)oc2c1ccc1ccccc12"
  residual activity, %: 92.6

In the following, a different molecule is considered.
Ask: What value of residual activity has been recorded for this entry: CC(C)N(CCC(=O)c1ccc2ccccc2c1)Cc1ccccc1
Result: 103
